Provenance of the data: BindingDB's records for doi:10.1016/j.str.2004.10.004

Recorded pIC50 values (High affinity cGMP-specific 3',5'-cyclic phosphodiesterase 9A [226-593] (Homo sapiens)) are given below.
pIC50: −log10 of the molar value.

COc1ccc([C@@H]2CNC(=O)C2)cc1OC1CCCC1 (racemic) [Adeo] : < 3.70
COc1ccc(C2(C#N)CCC(C(=O)O)CC2)cc1OC1CCCC1 (stereo not given) [Ariflo] : < 3.70
O=C(Nc1c(Cl)cncc1Cl)c1ccc(OC(F)F)c(OCC2CC2)c1 [DAXAS] : < 3.70
CN1CC(=O)N2[C@H](c3ccc4c(c3)OCO4)c3[nH]c4ccccc4c3C[C@@H]2C1=O : 3.82

Attention now turns to another entry.
Please report pIC50 with High affinity cGMP-specific 3',5'-cyclic phosphodiesterase 9A [226-593] (Homo sapiens) for item COc1ccc(C(C)=NOC(N)=O)cc1OC1CCCC1 .
Sequence (O76083 226-593): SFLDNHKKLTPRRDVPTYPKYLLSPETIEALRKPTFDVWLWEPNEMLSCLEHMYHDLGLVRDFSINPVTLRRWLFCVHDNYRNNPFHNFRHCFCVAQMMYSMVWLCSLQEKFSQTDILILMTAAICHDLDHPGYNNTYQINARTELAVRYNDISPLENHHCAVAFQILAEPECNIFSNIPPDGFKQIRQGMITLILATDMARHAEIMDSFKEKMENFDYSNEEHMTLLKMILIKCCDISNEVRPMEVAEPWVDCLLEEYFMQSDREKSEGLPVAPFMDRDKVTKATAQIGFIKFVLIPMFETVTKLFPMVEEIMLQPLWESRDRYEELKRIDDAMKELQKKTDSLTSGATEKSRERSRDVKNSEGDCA
< 3.70

* * *

Target: cGMP-inhibited 3',5'-cyclic phosphodiesterase 3B [650-1084] (Homo sapiens)
Sequence (Q13370 650-1084): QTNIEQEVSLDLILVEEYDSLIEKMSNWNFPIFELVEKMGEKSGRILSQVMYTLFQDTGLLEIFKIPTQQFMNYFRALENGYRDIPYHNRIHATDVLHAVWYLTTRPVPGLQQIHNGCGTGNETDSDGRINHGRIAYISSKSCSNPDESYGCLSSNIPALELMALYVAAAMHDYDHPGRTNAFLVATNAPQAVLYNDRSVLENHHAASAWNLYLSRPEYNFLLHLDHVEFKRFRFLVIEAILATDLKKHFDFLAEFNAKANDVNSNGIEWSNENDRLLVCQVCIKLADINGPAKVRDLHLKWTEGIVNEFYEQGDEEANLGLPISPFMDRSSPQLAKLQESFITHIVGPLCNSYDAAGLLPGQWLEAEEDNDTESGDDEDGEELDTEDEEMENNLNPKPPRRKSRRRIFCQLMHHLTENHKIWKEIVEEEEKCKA
Checkbox rule: IC50 lower than 10 µM = true; IC50 not lower than 10 µM = false.

COc1ccc(C2(C#N)CCC(C(=O)O)CC2)cc1OC1CCCC1 (configuration not stated) [Ariflo] : false

Hello, I'm reviewing records and need to know if IC50 of COc1ccc(C(C)=NOC(N)=O)cc1OC1CCCC1 is below 10 µM. Could you check?
true

Hello, I'm reviewing records and need to know if IC50 of O=C(Nc1c(Cl)cncc1Cl)c1ccc(OC(F)F)c(OCC2CC2)c1 [DAXAS] is below 10 µM. Could you check?
false

Hello, I'm reviewing records and need to know if IC50 of COc1cc(-c2ccc(=O)[nH]n2)ccc1OC(F)F is below 10 µM. Could you check?
true

Hello, I'm reviewing records and need to know if IC50 of COc1ccc([C@@H]2CNC(=O)C2)cc1OC1CCCC1 (racemic) [Adeo] is below 10 µM. Could you check?
false

Hello, I'm reviewing records and need to know if IC50 of CN1CC(=O)N2[C@H](c3ccc4c(c3)OCO4)c3[nH]c4ccccc4c3C[C@@H]2C1=O is below 10 µM. Could you check?
false

Hello, I'm reviewing records and need to know if IC50 of COc1ccc(C(=O)Nc2c(Cl)cncc2Cl)cc1OC1CCCC1 is below 10 µM. Could you check?
false

* * *

This listing pairs compounds with measured IC50.
Target: cAMP and cAMP-inhibited cGMP 3',5'-cyclic phosphodiesterase 10A [432-779] (Homo sapiens, UniProt Q9Y233)
Sequence (Q9Y233 708-1055): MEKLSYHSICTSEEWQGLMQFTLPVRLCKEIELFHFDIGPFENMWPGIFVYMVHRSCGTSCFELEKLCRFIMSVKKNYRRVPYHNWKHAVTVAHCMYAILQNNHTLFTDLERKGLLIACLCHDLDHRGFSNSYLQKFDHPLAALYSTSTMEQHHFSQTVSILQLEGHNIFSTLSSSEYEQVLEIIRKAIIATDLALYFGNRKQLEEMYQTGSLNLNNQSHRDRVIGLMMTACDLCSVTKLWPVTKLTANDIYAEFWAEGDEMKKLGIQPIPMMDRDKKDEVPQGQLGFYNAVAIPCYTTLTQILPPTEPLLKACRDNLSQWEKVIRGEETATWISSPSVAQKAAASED
Note: unit µM is implicit; provide only the numeric part.

Check out these entries, answers already filled in.
COc1ccc(C2(C#N)CCC(C(=O)O)CC2)cc1OC1CCCC1 (configuration not stated) : 73
CN1CC(=O)N2[C@H](c3ccc4c(c3)OCO4)c3[nH]c4ccccc4c3C[C@@H]2C1=O : 19
COc1ccc(C(C)=NOC(N)=O)cc1OC1CCCC1 : 27
CCCOc1cc(C2(C)CNC(=O)O2)ccc1OC (racemic) : 63
COc1cc(-c2ccc(=O)[nH]n2)ccc1OC(F)F : 14

Attention now turns to another entry.
Let me know recorded IC50 for CCCc1nc(C)c2c(=O)[nH]c(-c3cc(S(=O)(=O)N4CCN(CC)CC4)ccc3OCC)nn12 , thanks.
0.88

* * *

Molecular target: High affinity cGMP-specific 3',5'-cyclic phosphodiesterase 9A [226-593] (Homo sapiens)
Construct: 226-593
pIC50: −log10 of the molar value.
This listing pairs compounds with measured pIC50.

CCCOc1cc(C2(C)CNC(=O)O2)ccc1OC (racemic) : < 3.70
COc1cc(-c2ccc(=O)[nH]n2)ccc1OC(F)F : < 3.70

Attention now turns to another entry.
Let me know recorded pIC50 for COc1ccc(C(=O)Nc2c(Cl)cncc2Cl)cc1OC1CCCC1 , thanks.
< 3.70
